assayed_target: P2Y purinoceptor 2 (Homo sapiens)
test_summary: Agonist activity at human GFP-tagged P2Y2 receptor expressed in human 1321N1 cells assessed as intracellular calcium mobilization up to 100 uM by fura2/AM-based fluorescence spectrophotometry
Assay type: functional, cell-based
Activity calls are given as the source filed them. The rule behind the calls is not given here.
assay_readout: Activity

# compound_structure, assayed_target, result
records = [
    ("B[P@](=O)(OC[C@H]1O[C@@H](n2cc(OC)c(=O)[nH]c2=O)[C@H](O)[C@@H]1O)OP(=O)(O)OP(=O)(O)OC[C@H]1O[C@@H](n2cc(OC)c(=O)[nH]c2=O)[C@H](O)[C@@H]1O", "P2Y purinoceptor 2 (Homo sapiens)", "inactive"),
    ("B[P@@](=O)(OC[C@H]1O[C@@H](n2cc(OC)c(=O)[nH]c2=O)[C@H](O)[C@@H]1O)OP(=O)(O)OP(=O)(O)OC[C@H]1O[C@@H](n2cc(OC)c(=O)[nH]c2=O)[C@H](O)[C@@H]1O", "P2Y purinoceptor 2 (Homo sapiens)", "inactive"),
    ("B[P@@](=O)(OC[C@H]1O[C@@H](n2cc(OC)c(=O)[nH]c2=O)[C@H](O)[C@@H]1O)OP(=O)(O)OP(=O)(O)O", "P2Y purinoceptor 2 (Homo sapiens)", "inactive"),
]

---

assayed_target: P2Y purinoceptor 4 (Homo sapiens, UniProt P51582)
Sequence (P51582 whole entry): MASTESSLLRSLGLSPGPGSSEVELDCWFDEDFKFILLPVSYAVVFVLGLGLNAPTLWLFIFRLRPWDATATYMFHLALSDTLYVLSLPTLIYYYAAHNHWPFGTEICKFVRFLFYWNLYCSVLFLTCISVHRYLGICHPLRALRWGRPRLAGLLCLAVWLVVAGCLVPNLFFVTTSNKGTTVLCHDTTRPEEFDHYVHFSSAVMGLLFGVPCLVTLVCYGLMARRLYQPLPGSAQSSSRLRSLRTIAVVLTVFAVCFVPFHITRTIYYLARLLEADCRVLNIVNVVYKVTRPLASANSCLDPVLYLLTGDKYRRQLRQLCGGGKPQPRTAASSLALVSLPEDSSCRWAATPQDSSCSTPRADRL
test_summary: Agonist activity at human GFP-tagged P2Y4 receptor expressed in human 1321N1 cells assessed as intracellular calcium mobilization by fura2/AM-based fluorescence spectrophotometry

# compound, assayed_target, EC50 [nM]
records = [
    ("O=c1ccn([C@@H]2O[C@H](COP(=O)(O)OP(=O)(O)OP(=O)(O)O)[C@@H](O)[C@H]2O)c(=O)[nH]1 [URIDINE TRIPHOSPHATE]", "P2Y purinoceptor 4 (Homo sapiens, UniProt P51582)", 900),
]

---

assayed_target: P2Y purinoceptor 6 (Homo sapiens)
Sequence (Q15077 whole entry): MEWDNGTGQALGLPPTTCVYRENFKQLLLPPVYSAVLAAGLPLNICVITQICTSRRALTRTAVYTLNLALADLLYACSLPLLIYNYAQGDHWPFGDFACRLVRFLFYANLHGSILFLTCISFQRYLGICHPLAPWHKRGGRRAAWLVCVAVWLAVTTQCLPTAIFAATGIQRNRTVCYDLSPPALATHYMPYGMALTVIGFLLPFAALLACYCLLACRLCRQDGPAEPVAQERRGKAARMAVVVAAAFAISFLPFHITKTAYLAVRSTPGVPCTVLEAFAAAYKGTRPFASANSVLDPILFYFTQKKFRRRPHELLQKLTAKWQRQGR
test_summary: Agonist activity at human P2Y6 receptor
Type: functional
Measured EC50, listed per entry for reference.
assay_readout: EC50 (nM)

# compound, result_number
records = [
    ("O=c1ccn([C@@H]2O[C@H](COP(=O)(O)OP(=O)(O)O)[C@@H](O)[C@H]2O)c(=O)[nH]1 [URIDINE_DIPHOSPHATE]", 47),
    ("O=c1ccn([C@@H]2O[C@H](COP(=O)(O)OP(=O)(O)S)[C@@H](O)[C@H]2O)c(=O)[nH]1 (some centres not stated)", 28),
]

---

assayed_target: NPP3 (ectonucleotide pyrophosphatase/phosphodiesterase family member 3) (Homo sapiens)
Sequence (O14638 whole entry): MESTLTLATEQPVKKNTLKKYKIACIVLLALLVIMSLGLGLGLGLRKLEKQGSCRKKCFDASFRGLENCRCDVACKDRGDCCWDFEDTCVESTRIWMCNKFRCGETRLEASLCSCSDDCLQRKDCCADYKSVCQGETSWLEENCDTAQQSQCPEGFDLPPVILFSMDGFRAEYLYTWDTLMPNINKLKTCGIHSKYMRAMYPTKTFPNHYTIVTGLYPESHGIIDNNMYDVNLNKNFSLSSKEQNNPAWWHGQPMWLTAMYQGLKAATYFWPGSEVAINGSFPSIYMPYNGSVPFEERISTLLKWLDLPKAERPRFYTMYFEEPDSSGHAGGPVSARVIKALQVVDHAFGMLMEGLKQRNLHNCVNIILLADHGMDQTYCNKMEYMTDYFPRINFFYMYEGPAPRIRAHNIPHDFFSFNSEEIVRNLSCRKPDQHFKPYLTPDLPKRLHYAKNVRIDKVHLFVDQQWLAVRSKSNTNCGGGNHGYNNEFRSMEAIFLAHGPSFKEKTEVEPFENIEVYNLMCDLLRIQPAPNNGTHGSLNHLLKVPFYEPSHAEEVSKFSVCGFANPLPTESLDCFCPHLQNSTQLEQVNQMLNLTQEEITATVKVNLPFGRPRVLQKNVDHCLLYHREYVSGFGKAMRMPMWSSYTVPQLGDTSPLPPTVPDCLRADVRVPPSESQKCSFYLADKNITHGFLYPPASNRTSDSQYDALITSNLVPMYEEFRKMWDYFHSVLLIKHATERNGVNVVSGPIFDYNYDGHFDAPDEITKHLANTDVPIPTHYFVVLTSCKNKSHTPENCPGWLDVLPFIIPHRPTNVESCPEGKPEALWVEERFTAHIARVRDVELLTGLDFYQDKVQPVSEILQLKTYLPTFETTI
test_summary: Hydrolytic stability of the compound assessed as human NPP3-mediated hydrolysis after 3 hrs by HPLC analysis
Format: ADME
measurement_setup: human NPP3 enzyme, read-out: Activity

# compound_structure, endpoint_unit, metabolised at 3 h
data = [
    ("B[P@@](=O)(OC[C@H]1O[C@@H](n2cc(OC)c(=O)[nH]c2=O)[C@H](O)[C@@H]1O)OP(=O)(O)O", "%", 28),
    ("COc1cn([C@@H]2O[C@H](COP(=O)(O)OP(=O)(O)O)[C@@H](O)[C@H]2O)c(=O)[nH]c1=O", "%", 36),
]

---

Measured half-life, listed per entry for reference.
test_summary: Half life in human serum by HPLC analysis
Type: ADME, cell-free
assay_readout: half-life (h)

# compound, assay_readout, endpoint_unit, result_number
rows = [
    ("COc1cn([C@@H]2O[C@H](COP(=O)(O)OP(=O)(O)O)[C@@H](O)[C@H]2O)c(=O)[nH]c1=O", "half-life", "h", 11.9),
    ("B[P@@](=O)(OC[C@H]1O[C@@H](n2ccc(=O)[nH]c2=O)[C@H](O)[C@@H]1O)OP(=O)(O)O", "half-life", "h", 17),
    ("O=c1ccn([C@@H]2O[C@H](COP(=O)(O)OP(=O)(O)O)[C@@H](O)[C@H]2O)c(=O)[nH]1 [URIDINE_DIPHOSPHATE]", "half-life", "h", 2.4),
    ("B[P@@](=O)(OC[C@H]1O[C@@H](n2cc(OC)c(=O)[nH]c2=O)[C@H](O)[C@@H]1O)OP(=O)(O)O", "half-life", "h", 21),
]

// provenance: ChEMBL document CHEMBL2086311
